Test: Probe fluorescence ratio response to arachidonic acid relative to ADIFAB2
Format: binding
Details: arachidonic acid; response relative to ADIFAB2
measuredMetric: DR/DR AA
Answers are plain numbers.

78I, 72A (protein, listed as Rattus norvegicus, PEPTIDE (1)...(131) wild-type rat intestinal fatty acid binding protein) AFDGTWKVDRNENYEKFMEKMGINVVKRKLGAHDNLKLTITQEGNKFTVKESSNFRNIDVVFELGVDFAYSAADGTEITGTWTMEGNKLVGKFKRVDNGKELIAVREISGNELIQTYTYEGVEAKRIFKKE :: 1.138

Then this molecule:
Item under review: 11Y, 72A (protein, listed as Rattus norvegicus, PEPTIDE (1)...(131) wild-type rat intestinal fatty acid binding protein) AFDGTWKVDRYENYEKFMEKMGINVVKRKLGAHDNLKLTITQEGNKFTVKESSNFRNIDVVFELGVDFAYSAADGTELTGTWTMEGNKLVGKFKRVDNGKELIAVREISGNELIQTYTYEGVEAKRIFKKE . Reported DR/DR AA? 0.516
